Cited source for all entries: patent US20250313625A1

Entries and their measured pKd follow.
# SYSTEM_TESTED: T1, human LAG3 (form used in Octet, Biacore and HDX-MS not given) (human, UniProt P18627 23-450, limits assumed)
# T1 sequence (looked up): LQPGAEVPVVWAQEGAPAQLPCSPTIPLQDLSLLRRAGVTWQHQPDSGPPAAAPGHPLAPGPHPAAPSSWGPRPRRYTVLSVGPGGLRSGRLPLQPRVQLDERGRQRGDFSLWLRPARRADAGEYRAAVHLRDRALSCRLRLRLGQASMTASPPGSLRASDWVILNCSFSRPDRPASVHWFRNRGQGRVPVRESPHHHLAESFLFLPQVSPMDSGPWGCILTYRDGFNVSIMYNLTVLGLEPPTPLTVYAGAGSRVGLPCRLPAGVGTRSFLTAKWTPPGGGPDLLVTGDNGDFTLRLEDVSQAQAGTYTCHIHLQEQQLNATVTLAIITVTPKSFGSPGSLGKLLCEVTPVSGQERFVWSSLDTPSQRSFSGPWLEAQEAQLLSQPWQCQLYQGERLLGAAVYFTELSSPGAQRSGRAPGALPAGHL
# METHOD_DESCRIPTION: BLI (Octet), 1:1 fit
To interpret pKd, take it as minus log10 of a concentration measured in moles per litre.

| BINDER | OBSERVED_RESULT |
| --- | --- |
| hu029.40 (antibody, V domains shown, humanized from 029c) VH: QVQLVESGGGLVKPGGSLRLSCAASGFTFSSYAMSWVRQAPGKRLEWVAYVTSGGDYIYYADTVKGRFTISRDDAKNSLYLQMNSLRAEDTAMYYCTRVAYDYEWYFDVWGQGALVTVSS VL: DIQMTQSPSSVSTSVGDRVTITCKASQDVTTAVAWYQQKPGKAPKLLIYSASYRYTGVPSRFSGSGSGTDFTFTISSVQPEDFATYYCQQHDSSPWTFGQGTKLEIK | 8.32 |

Which pKd is reported for this binder? hu021.279 (antibody, V domains shown, humanized from 021c; also called hu21.279) VH: QIQLQESGPGLVKPGQTLSLTCTVSGYSITSGYYWTWIRQHPGNKLEWIGDISYDAGNNYNPSLKNRITISRDTSKNQFSLKLSSVTAEDTATYYCARDITLTGAMDYWGQGTTVTVSS VL: EIVLTQSPATLSLSPGERATLSCRASESVDNYGISFMHWYQQKPGQAPRLLIYRASNLESGIPARFSGSGSGTDFTLTISSLEPEDFAVYYCQQSNKDPYTFGQGTKLEIK
8.45
